Answer each item with its documented MIC.
Tested on: clinical P. aeruginosa isolates
EXPERIMENTAL DETAILS: microbe, parasite or virus in culture
MEASUREMENT CONDITIONS: Pseudomonas aeruginosa, 18 h, read-out: Antibiotic sensibility (MIC) of clinical P. aeruginosa isolate AUMC-Pa-1, strain AUMC-Pa-1; antibiotic alone
Field: numeric (µM). Do not append units.

Under clinical P. aeruginosa isolates: MIC value of CO[C@H]1/C=C/O[C@@]2(C)Oc3c(C)c(O)c4c(O)c(c5c(nc6cc(C)ccn65)c4c3C2=O)NC(=O)/C(C)=C\C=C\[C@H](C)[C@H](O)[C@@H](C)[C@@H](O)[C@@H](C)[C@H](OC(C)=O)[C@@H]1C [Rifaximin] ? 32

And then CNC(C)C1CCC(N)C(OC2C(N)CC(N)C(OC3OCC(C)(O)C(NC)C3O)C2O)O1 (centres unmarked) [Gentamicin] , what is it? 0.5

Also, NCC[C@H](O)C(=O)N[C@@H]1C[C@H](N)[C@@H](O[C@H]2O[C@H](CN)[C@@H](O)[C@H](O)[C@H]2O)[C@H](O)[C@H]1O[C@H]1O[C@H](CO)[C@@H](O)[C@H](N)[C@H]1O [Amikacin] please. 1

Note, next up: CO[C@H]1/C=C/O[C@@]2(C)Oc3c(C)c(O)c4c(O)c(c(/C=N/N5CCN(C)CC5)c(O)c4c3C2=O)NC(=O)/C(C)=C\C=C\[C@H](C)[C@H](O)[C@@H](C)[C@@H](O)[C@@H](C)[C@H](OC(C)=O)[C@@H]1C [Rifampicin] 32

###

System: P. aeruginosa AUMC-Pa-6
EXPERIMENTAL DETAILS: microbe, parasite or virus in culture
MEASUREMENT CONDITIONS: strain AUMC-Pa-6; with D-11 at MICbc 4; unit not given
Hi there, I'd appreciate the recorded MICac: MIC of the antibiotic in the combination for every entry that follows.

So what's the measured MICac: MIC of the antibiotic in the combination for this one? CN(C)[C@@H]1C(O)=C(C(N)=O)C(=O)[C@@]2(O)C(O)=C3C(=O)c4c(O)c(NC(=O)CN5CCCC5)cc(F)c4C[C@H]3C[C@@H]12 [Eravacycline] 2

Likewise for CC[C@H]1OC(=O)[C@H](C)[C@@H](O[C@H]2C[C@@](C)(OC)[C@@H](O)[C@H](C)O2)[C@H](C)[C@@H](O[C@@H]2O[C@H](C)C[C@H](N(C)C)[C@H]2O)[C@](C)(OC)C[C@@H](C)C(=O)[C@H](C)[C@@H](O)[C@]1(C)O [Clarithromycin] ? 32

###

I'd be grateful if you could share measured FICI for these entries.
Test system: P. aeruginosa AUMC-Pa-4
EXPERIMENTAL DETAILS: microbe, parasite or virus in culture
MEASUREMENT CONDITIONS: strain AUMC-Pa-4; antibiotic + D-11 (MICb/MICbc 128/4)
Reply with just the number.

# input molecule: C[C@H]1COc2c(N3CCN(C)CC3)c(F)cc3c(=O)c(C(=O)O)cn1c23 ; wanted: its FICI 0.531

Next molecule: CN(C)c1ccc(O)c2c1C[C@H]1C[C@H]3[C@H](N(C)C)C(O)=C(C(N)=O)C(=O)[C@@]3(O)C(O)=C1C2=O 0.156

CO[C@H]1/C=C/O[C@@]2(C)Oc3c(C)c(O)c4c(O)c(c(/C=N/N5CCN(C)CC5)c(O)c4c3C2=O)NC(=O)/C(C)=C\C=C\[C@H](C)[C@H](O)[C@@H](C)[C@@H](O)[C@@H](C)[C@H](OC(C)=O)[C@@H]1C ? 0.047

Note, next up: CC[C@H]1OC(=O)[C@H](C)[C@@H](O[C@H]2C[C@@](C)(OC)[C@@H](O)[C@H](C)O2)[C@H](C)[C@@H](O[C@@H]2O[C@H](C)C[C@H](N(C)C)[C@H]2O)[C@](C)(OC)C[C@@H](C)C(=O)[C@H](C)[C@@H](O)[C@]1(C)O 0.281

// query: CO[C@H]1/C=C/O[C@@]2(C)Oc3c(C)c(O)c4c(O)c(c(/C=N/N5CCN(C6CCCC6)CC5)c(O)c4c3C2=O)NC(=O)/C(C)=C\C=C\[C@H](C)[C@H](O)[C@@H](C)[C@@H](O)[C@@H](C)[C@H](OC(C)=O)[C@@H]1C 0.063

Similarly, CO[C@@H]1[C@@H](OC(=O)c2ccc(C)[nH]2)[C@@H](O)[C@H](Oc2ccc3c(O)c(NC(=O)c4ccc(O)c(CC=C(C)C)c4)c(=O)oc3c2Cl)OC1(C)C ? 2.031

// next record COc1cc(Cc2cnc(N)nc2N)cc(OC)c1OC 0.156

Queued: C[C@H]1[C@H](NC(=O)/C(=N\OC(C)(C)C(=O)O)c2csc(N)n2)C(=O)N1S(=O)(=O)O 0.156

Same again, this time with CC1(C)S[C@@H]2[C@H](NC(=O)C(C(=O)O)c3ccccc3)C(=O)N2[C@H]1C(=O)O (some centres unmarked) 0.531

Now consider CN(C)c1cc(NC(=O)CNC(C)(C)C)c(O)c2c1C[C@H]1C[C@H]3[C@H](N(C)C)C(O)=C(C(N)=O)C(=O)[C@@]3(O)C(O)=C1C2=O and answer again. 0.281

Do the same for O=C(N[C@H](CO)[C@H](O)c1ccc([N+](=O)[O-])cc1)C(Cl)Cl please 0.063

// same read-out, input: CC[C@H]1OC(=O)[C@H](C)C(=O)[C@H](C)[C@@H](O[C@@H]2O[C@H](C)C[C@H](N(C)C)[C@H]2O)[C@](C)(OC)C[C@@H](C)C(=O)[C@H](C)[C@H]2N(CCCCn3cnc(-c4cccnc4)c3)C(=O)O[C@]12C 0.531

What do we get for CO[C@@H]1[C@@H](OC(N)=O)[C@@H](O)[C@H](Oc2ccc3c(O)c(NC(=O)c4ccc(O)c(CC=C(C)C)c4)c(=O)oc3c2C)OC1(C)C ? 0.531

Now try CCn1cc(C(=O)O)c(=O)c2ccc(C)nc21 . 0.531

###

Test system: P. aeruginosa AUMC-Pa-4
EXPERIMENTAL DETAILS: microbe, parasite or virus in culture
MEASUREMENT CONDITIONS: strain AUMC-Pa-4; antibiotic alone; unit not given
Positions of bridges follow the written chain, without caps; N, C: chain ends. Non-standard residues stand in square brackets, D forms with d. Residues, ends and D or L forms follow the SMILES beside them. *: point of attachment. X1 = CC[C@H](C)CCCCC(=O)*; Dab = NCC[C@H](N)C(=O)O
READOUT NAME: MICa: MIC of the antibiotic
# print the numeric value only

Sample C[C@H]1[C@H](NC(=O)/C(=N\OC(C)(C)C(=O)O)c2csc(N)n2)C(=O)N1S(=O)(=O)O — what was its MICa: MIC of the antibiotic? 32

Next compound: CC[C@H]1OC(=O)[C@H](C)C(=O)[C@H](C)[C@@H](O[C@@H]2O[C@H](C)C[C@H](N(C)C)[C@H]2O)[C@](C)(OC)C[C@@H](C)C(=O)[C@H](C)[C@H]2N(CCCCn3cnc(-c4cccnc4)c3)C(=O)O[C@]12C 64

Same for CC[C@H]1OC(=O)[C@H](C)[C@@H](O[C@H]2C[C@@](C)(OC)[C@@H](O)[C@H](C)O2)[C@H](C)[C@@H](O[C@@H]2O[C@H](C)C[C@H](N(C)C)[C@H]2O)[C@](C)(OC)C[C@@H](C)C(=O)[C@H](C)[C@@H](O)[C@]1(C)O 128

Next up: CN(C)c1ccc(O)c2c1C[C@H]1C[C@H]3[C@H](N(C)C)C(O)=C(C(N)=O)C(=O)[C@@]3(O)C(O)=C1C2=O 16

Can you check CC[C@H](C)CCCCC(=O)N[C@@H](CCN)C(=O)N[C@H](C(=O)N[C@@H](CCN)C(=O)N[C@H]1CCNC(=O)[C@H]([C@@H](C)O)NC(=O)[C@H](CCN)NC(=O)[C@H](CCN)NC(=O)[C@H](CC(C)C)NC(=O)[C@@H](CC(C)C)NC(=O)[C@H](CCN)NC1=O)[C@@H](C)O [Colistin] (X1-[Dab]T[Dab][Dab][Dab][dL]L[Dab][Dab]T; lactam 4-C (inferred); N-terminus assumed) next? 8

Try this compound too: O=C(N[C@H](CO)[C@H](O)c1ccc([N+](=O)[O-])cc1)C(Cl)Cl 128

// query: CO[C@H]1/C=C/O[C@@]2(C)Oc3c(C)c(O)c4c(O)c(c5c(nc6cc(C)ccn65)c4c3C2=O)NC(=O)/C(C)=C\C=C\[C@H](C)[C@H](O)[C@@H](C)[C@@H](O)[C@@H](C)[C@H](OC(C)=O)[C@@H]1C 8

###

Tested on: P. aeruginosa AUMC-Pa-4
EXPERIMENTAL DETAILS: microbe, parasite or virus in culture
MEASUREMENT CONDITIONS: strain AUMC-Pa-4; with D-11 at MICbc 4; unit not given
READOUT NAME: MICac: MIC of the antibiotic in the combination
The reply should be a number, written without any unit.

For O=C(N[C@H](CO)[C@H](O)c1ccc([N+](=O)[O-])cc1)C(Cl)Cl , what is its reported MICac: MIC of the antibiotic in the combination? 4

// same read-out, input: CO[C@H]1[C@H](OC(=O)c2ccc(C)[nH]2)[C@H](O)[C@@H](Oc2ccc3c(O)c(NC(=O)c4c[nH]c(C(=O)Nc5c(O)c6ccc(O[C@H]7OC(C)(C)[C@@H](OC)[C@H](OC(=O)c8ccc(C)[nH]8)[C@@H]7O)c(C)c6oc5=O)c4C)c(=O)oc3c2C)OC1(C)C 0.5

Next entry: CO[C@@H]1[C@@H](OC(=O)c2ccc(C)[nH]2)[C@@H](O)[C@H](Oc2ccc3c(O)c(NC(=O)c4ccc(O)c(CC=C(C)C)c4)c(=O)oc3c2Cl)OC1(C)C 0.5

Let us now turn to CC1COc2c(N3CCN(C)CC3)c(F)cc3c(=O)c(C(=O)O)cn1c23 (stereo not drawn) 0.25

Item: C[C@H]1[C@H](NC(=O)/C(=N\OC(C)(C)C(=O)O)c2csc(N)n2)C(=O)N1S(=O)(=O)O 4

Same again, this time with CN(C)[C@@H]1C(O)=C(C(N)=O)C(=O)[C@@]2(O)C(O)=C3C(=O)c4c(O)c(NC(=O)CN5CCCC5)cc(F)c4C[C@H]3C[C@@H]12 2

How about CO[C@H]1/C=C/O[C@@]2(C)Oc3c(C)c(O)c4c(c3C2=O)C2=NC3(CCN(CC(C)C)CC3)NC2=C(NC(=O)/C(C)=C\C=C\[C@H](C)[C@H](O)[C@@H](C)[C@@H](O)[C@@H](C)[C@H](OC(C)=O)[C@@H]1C)C4=O ? 1

Query CN(C)c1cc(NC(=O)CNC(C)(C)C)c(O)c2c1C[C@H]1C[C@H]3[C@H](N(C)C)C(O)=C(C(N)=O)C(=O)[C@@]3(O)C(O)=C1C2=O next 2

Param item: C[C@H]1c2cccc(O)c2C(=O)C2=C(O)[C@]3(O)C(=O)C(C(N)=O)=C(O)[C@@H](N(C)C)[C@@H]3[C@@H](O)[C@@H]21 0.5

// repeat for CN(C)c1ccc(O)c2c1C[C@H]1C[C@H]3[C@H](N(C)C)C(O)=C(C(N)=O)C(=O)[C@@]3(O)C(O)=C1C2=O and report 2
